# Subject of test: T1, Human PD-1 expressed on CHO-K1 cells (CHO-K1/hPD-1) (human, UniProt Q15116 25-288)
# T1 construct: whole, on cells; also called CHO-K1 cells overexpressing human PD-1
# Protocol: FACS, CHO-K1/hPD-1 cells
Measured metric: MFI Maximum
Form: value (number only, do not type unit).

Binder: PR000676 (antibody, human IgG4 S228P, kappa, V domains shown, Fully human recombinant H2L2 antibody, human IgG4, kappa light chain; also called 4004_1A7A1) VH: QIQLVESGGGVVQPGRSLRLSCAASGFTLSSYGMHWVRQAPGKGLEWVAVILSDGSNKYYADSVKGRFTISRDNSKNTLYLQMNSLRAEDTAVYYCADLGGDVWGQGTTVTVSS VL: EIVLTQSPATLSLSPGERATLSCRASQSVSSYLAWYQQKPGQAPRLLIYDASTRATGIPARFSGSGSGTDFTLTISSLEPEDFAVYYCQQRSNWPLTFGGGTKVEIKR
MFI Maximum: 2.16e+06

Binder: PR005142 (VHH, Monovalent single-domain (VH) variant of PR002481 with Flag-6His tag) VHH: EVQLVETGGGLIQPGGSLRLSCAASGFNVSFYYMSWVRQAPGKGREWVSIIDKGGSGYYAASVKGRFTISRDNSKNRLYLQMNSLRAEDTAMYYCARATEVREKNGYNYPFNYWGQGTLVTVSS
MFI Maximum: 12400

Binder: PR002476 (antibody, human IgG1, V domains shown, Heavy-chain-only antibody (HCAb), human IgG1 Fc; two heavy chains, no light chain; also called R4004P547H11) VH: EVQLVETGGGLIQPGGSLRLSCAASGFNVSSHYMSWVRQAPGKGLEWVSIIHSGGSTYYADSVKGRFTISRDNSKNRLYLQMNSLRAEDTAVYYCARATAVAEKNGYNYPFNYWGQGTLVTVSS
MFI Maximum: 1.02e+06

What does the data say about its MFI Maximum? Entry: PR002478 (antibody, human IgG1, V domains shown, Heavy-chain-only antibody (HCAb), human IgG1 Fc; two heavy chains, no light chain; also called R4004P548A8) VH: EVQLVETGGGLIQPGGSLRLSCAASGFNVSSNYMSWVRQAPGKGLEWVSIIHSGGSTYYADSVKGRFTISRDNSKNRLYLQMNSLRAEDTAVYYCARAIAVAEKNGYNYPFNYWGQGTLVTVSS
953000

Further, for PR005149 (VHH, Monovalent single-domain (VH) variant of PR002481 with Flag-6His tag) VHH: EVQLVETGGGLIQPGGSLRLSCAASGFNVSSHYMSWVRQAPGKGREWVSIIDKAGSGYYADSVKGRFTISRDNSKNRLYLQMNSLRAEDTAMYYCARATEVREKQGYNYPFNYWGQGTLVTVSS ?
11100

Further, for PR005148 (VHH, Monovalent single-domain (VH) variant of PR002481 with Flag-6His tag) VHH: EVQLVETGGGLIQPGGSLRLSCAASGFNVSSHYMSWVRQAPGKGREWVSIIDKAGSGYYAASVKGRFTISRDNSKNRLYLQMNSLRAEDTAMYYCARATEVREKNGYNYPFNYWGQGTLVTVSS ?
11700

Further, for PR005145 (VHH, Monovalent single-domain (VH) variant of PR002481 with Flag-6His tag) VHH: EVQLVETGGGLIQPGGSLRLSCAASGFNVSFYYMSWVRQAPGKGREWVSIIDKGGSTYYGDSVKGRFTISRDNSKNRLYLQMNSLRAEDTAMYYCARATEVREKNGYNYPFNYWGQGTLVTVSS ?
10500
